Experiment description: label from the status in PepcDB records;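 note: failed if final PepcDB status was selected cloned or expressed and not failed if soluble or beyond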
Recorded metric: protein production

Worked examples, 5 sequences total:
{"Sequence string": "MYQTIEGFLQSWTYETESTQKMLDVLTDESLSQEIAPGHWTLGRVAWHIVTAIPVILSGTGLKFEGETKDYPVPTSAKTIADGYRKVNTAFVEALQSEWTDKDLTTINDFFGRPMPNSIFLMTLINHQNHHRGQMTVLMRQAGLTVPGVYGPAKEEWATAGMEAPKM", "Value observed": "not failed"}
{"Sequence string": "KKAKKVRFYRNGDRYFKGIVYAISPDRFRSFEALLADLTRTLSDNVNLPQGVRTIYTIDGLKKISSLDQLVEGESYVCGSIEPFKKLEYTKNVNPNWSVNVKT", "Value observed": "not failed"}
{"Sequence string": "MVTDKSKKAKTEEENVEQIDAELVLSIEKLQEIQDDLEKINEKASDEVLEVEQKYNVIRKPVYDKRNEIIKTIPDFWLTAFLSHPALGELLTEEDQKIFKYLSSLDVEDAKDVKSGYSITFSFNPNPFFEDGKLTKTFTFLEEGTTKITATPIKWKEGKGLANGVNHEKNGNKRALPEESFFTWFSDAQHKEDVEDEMQDEVADIIKEDLWPNPLTYFNNDADEEDFDGDDDGDEEEKEGDSDEDDDEEDEVGEE", "Value observed": "failed"}
{"Sequence string": "MMIMLSKRPVAMRIALRPLALAASLILSTPFALNATTFGTDLLEGQVLDGIGTGAGNLGTVADIQNTLSNMLRDEAAIGTLASVLPQALQRLPDDRQLRLLQAVVWAATRRDDDARAQMAQIGQEPPNVWRHVAEGLIARNAGDLARAAASLDEARALDPDNAYVHNTAGSIAFAAGDLEAAQEHFAQAVKSAPGWPRLLRQPCRHDDRTRQSARGPDHSGRKPPSPSRLLRHPPDGGRGASVARAVGCCRSRAAHLP", "Value observed": "failed"}
{"Sequence string": "KQFPGYPEFVLVEIETQRGCPKAMGIGGCSFCTEPVRYKVVENRPQEYVAQEVETFYNMGIRHFRIGRQSCIFSYKARPNGRVPIPKPEEVEKLFKAVRLAAPNVKTLHVDNANPAVIANYPEESRRIAKAIIEYGTPGNVVAFGLETADPKVARINNLNATPEETYEAVKIINEVGGRRGYNGLPWLLPGINIIFGLPGETKRTYELTYEFLKKILDDGLMVRRINIRQVVVFPGTPLWNMRDKVKTEKHKALIEHYRHKIRHEIDLPMLKRVVPVG", "Value observed": "failed"}

Just so you know, measured protein production for TKIKSVRTRVWNWTGPTVPPQGNFCTNASDALWIQGDAMASFRFHQWLTCEVETEDGTIGIGNAALAPNVVKQAIDEWYAPLVIGEDPFDYAYLWEKMYRRTHAWGRKGIGMTAISAIDIAIWDLMGKLVGKPVFKLLGGRTKEKIPVYYSKLYADSIPAMQAEAEEAQKHGYQGYKTRFGYGPKDGPAGMRENLKRVEALREVLGYDVDLMLECYMGWNLDYTKRMLPKLERFEPRWLEEPVIADDVAGYAELNAMGIVPISGGEHEFSVMGCAELINRKAVSVLQYDTNRVGGITAAQKINAIAEAAQIIVIPHAGQMHNYHLTMANMNCPISEYFPVFDVEVGNELFYYIFDGDPEAVDGYLQLDDDTPGLGITISDAHLKHFEITE came out at not failed

Just so you know, measured protein production for MMSDLPRDLLEERLSRVPVKSLREARFTCKNWKTLSKKRSFTKKHLAQEATSRESEFKVVMVLHCKVYLTSINLRGIHNGFDPSINRQAKLVSLNGTDQIDISEVYHCDGLLLCISKDYTRVVVWNPYRSQTLWLKPSSPDHRMDWYICAIGYEKRKSSLRYKVLRFVDFAEEEFVEYEIYELKSNSWRVLDVTSDWEVEFYARGVSLKGNTYWFATDKFPEISSNLIHSVYFLLCFNFTSERFGPRLHLPCYPMDVDTVSLSSVREEQLAVLFQRKDNLHMEIWVTTKIEPEEVMWSKLFLAVDMQPLTDFKFGIADASFIIDEEKKVVVVFAKDKDVMYPTHNTAYIIGEDGYYKEVDLGKTTDKIRDPLVCSYVPSSAQIKQGGKRKKKGKLITD came out at failed

Just so you know, measured protein production for MTLNIYTEEWAPISFSVDGKPDGLAVQVVQEIQKRIDNQDPIKVVPWARGWKIITEQPNTVLFTMTRTAERERMFSLIGPVAVGTTNFYALKNSNLKINLEHHHHHH came out at not failed

Just so you know, measured protein production for MKTVGVVLSGCGVLDGAEIHESVLTMLALDRAGAEVLFFAPDKPQLHVINHITGEIVAEERNVLVESARIARGLITPLSAADPEVLDALIVPGGFGAAKNLCDFAIKGGECSVEPDLYKLIQLMHKSGKPIGLMCISPVMLPKLLGKPIRLTIGNDPDTIDAIEIMGGEHVICPADDVVIDLENKVVTTPAYMLAGSISEAAKGIDKLVTKVLDLTE came out at failed

Just so you know, measured protein production for MSTDFDRIYLNQSKFSGRFRIADSGLGWKISTSGGSAANQARKPFLLPATELSTVQWSRGCRGYDLKINTKNQGVIQLDGFSQDDYNLIKNDFHRRFNIQVEQREHSLRGWNWGKTDLARNEMVFALNGKPTFEIPYARINNTNLTSKNEVGIEFNIQDEEYQPAGDE came out at not failed

Just so you know, measured protein production for MYQVIIFALLFAGISSGFITFRIMGMRMAPHFGVLILALIATAANIMSGNVTLNYVAVALQVLTGISAYTQFLPVLRDSFQTAPLYACHLSTVTVAAVLAAASVPL came out at failed

Just so you know, measured protein production for MSEAIRRAEAIDFGPDAQDLLWLSQDPVAVFDAEDRLRAANPAYCATFGCDPAEAPSWRQIMRRNHAMRQGALIVTEDFEGWLAAAAASRGRVPFRAYEAALHDGRWIWITETTAPDGRMLVHATDVTRLRSESLALRSERDAAQRASWTDPLTGVPNRRFVMDHLERWLDQQPRHGTFGTHALAVMDLDRFKQVNDLYGHTAGDAVLVSFCRITTDSIRSVDLFGRFGGEEFVLFMPNCPLETAQARLERLQEALAVAVVSPDLPALRCTFSAGLVAMRRDKDVHHAIRRADRLLYRAKADGRACVRAEI came out at failed

Just so you know, measured protein production for MGYSGKPHHQLDGEIRESTDGKKWVIAGIPSRSPLKQINLSPGVTVTETEEQDQCPTTPTAVSVRIPRVPPCPAAPKKRKPSLKCSYVTVTRDYFSPPDLETVFIQRASY came out at failed
